Tested on: MCF10A
Assay: normalised growth rate inhibition (GR value) relative to DMSO control (GR (1 = untreated growth, 0 = cytostasis, <0 = cytotoxic)); higher = less growth inhibition
Settings: 3.33 µM; 72 h
Each entry below lists one item and its recorded normalised growth rate inhibition value.
value.kind: normalised growth rate inhibition

[[record]]
compound = "CC(C)(C)c1cnc(CSc2cnc(NC(=O)C3CCNCC3)s2)o1"
value_kind = "normalised growth rate inhibition"
result_value = -0.261

[[record]]
compound = "CC(=O)Nc1cccc(-n2c(=O)n(C3CC3)c(=O)c3c(Nc4ccc(I)cc4F)n(C)c(=O)c(C)c32)c1"
value_kind = "normalised growth rate inhibition"
result_value = 0.206

[[record]]
compound = "C#Cc1cccc(Nc2ncnc3cc(OCCOC)c(OCCOC)cc23)c1"
value_kind = "normalised growth rate inhibition"
result_value = 0.132

[[record]]
compound = "CS(=O)(=O)N1CCN(Cc2cc3nc(-c4cccc5[nH]ncc45)nc(N4CCOCC4)c3s2)CC1"
value_kind = "normalised growth rate inhibition"
result_value = 0.289

[[record]]
compound = "C=CC(=O)Nc1cccc(Nc2nc(NC3CCC(N(C)C)CC3)nc3c2ncn3C(C)C)c1 (configuration not stated)"
value_kind = "normalised growth rate inhibition"
result_value = -0.245

[[record]]
compound = "C[C@@H]1C[C@H]2O[C@@H]2/C=C\\C=C\\C(=O)Cc2c(Cl)c(O)cc(O)c2C(=O)O1"
value_kind = "normalised growth rate inhibition"
result_value = -0.0227

[[record]]
compound = "Cc1[nH]c(/C=C2\\C(=O)Nc3ccc(S(=O)(=O)N(C)c4cccc(Cl)c4)cc32)c(C)c1C(=O)N1CCN(C)CC1"
value_kind = "normalised growth rate inhibition"
result_value = 0.742

[[record]]
compound = "Cc1[nH]c(/C=C2\\C(=O)Nc3ccc(S(=O)(=O)Cc4c(Cl)cccc4Cl)cc32)c(C)c1C(=O)N1CCC[C@@H]1CN1CCCC1"
value_kind = "normalised growth rate inhibition"
result_value = 0.965

[[record]]
compound = "O=C(NOC[C@H](O)CO)c1ccc(F)c(F)c1Nc1ccc(I)cc1F"
value_kind = "normalised growth rate inhibition"
result_value = 0.0915

[[record]]
compound = "O=c1[nH]c2ccccc2n1C1CCN(Cc2ccc(-c3[nH]c4cc5ncnc5cc4nc3-c3ccccc3)cc2)CC1"
value_kind = "normalised growth rate inhibition"
result_value = 0.945

[[record]]
compound = "N#CCNC(=O)c1ccc(-c2ccnc(Nc3ccc(N4CCOCC4)cc3)n2)cc1"
value_kind = "normalised growth rate inhibition"
result_value = 0.649

[[record]]
compound = "Cc1ncc(-c2ccnc(Nc3ccc(S(C)(=O)=O)cc3)n2)n1C(C)C"
value_kind = "normalised growth rate inhibition"
result_value = -0.199

[[record]]
compound = "Nc1ccc(-c2ccc3ncc4ccc(=O)n(-c5cccc(C(F)(F)F)c5)c4c3c2)cn1"
value_kind = "normalised growth rate inhibition"
result_value = 0.0667

[[record]]
compound = "COc1ccc(-c2ccc3c(N4CCOC[C@@H]4C)nc(N4CCOC[C@@H]4C)nc3n2)cc1CO"
value_kind = "normalised growth rate inhibition"
result_value = 0.146

[[record]]
compound = "CN(C)C/C=C/C(=O)Nc1cc2c(Nc3ccc(F)c(Cl)c3)ncnc2cc1O[C@H]1CCOC1"
value_kind = "normalised growth rate inhibition"
result_value = 0.058

[[record]]
compound = "O=c1cc(N2CCOCC2)oc2c(-c3cccc4c3sc3ccccc34)cccc12"
value_kind = "normalised growth rate inhibition"
result_value = 0.894

[[record]]
compound = "O=C1c2c(O)ccc(O)c2C(=O)c2c(NCCNCCO)ccc(NCCNCCO)c21"
value_kind = "normalised growth rate inhibition"
result_value = -0.186

